- TARGET SYSTEM: UniProt P29322
- PROCEDURE DETAILS: EphA8 Kinase Activity Assay
- Type: biochemical
- MEASUREMENT PARAMETERS: read-out: EphA8, % INH, at 30 uM
Measured inhibition at 30 µM of individual entries

Completed entries (count: 2):
Nc1nc(N2CCN(CCCc3cccc(F)c3)c3ccccc3C2)c2nc[nH]c2n1 [Compound 39]    < 50%
Nc1nc(N2CCN(Cc3ccc(F)cc3)c3ccccc3C2)c2cn[nH]c2n1 [Compound 16]    50 to 79%

Alright, here's another compound for you.
Which inhibition at 30 µM reading was recorded for the compound Cc1ccccc1CN1CCN(c2nc(N)nc3[nH]cnc23)Cc2ccccc21 [Compound 11] ?
< 50%

---

- TARGET SYSTEM: RET kinase (Homo sapiens)
- Sequence (P07949 29-1114): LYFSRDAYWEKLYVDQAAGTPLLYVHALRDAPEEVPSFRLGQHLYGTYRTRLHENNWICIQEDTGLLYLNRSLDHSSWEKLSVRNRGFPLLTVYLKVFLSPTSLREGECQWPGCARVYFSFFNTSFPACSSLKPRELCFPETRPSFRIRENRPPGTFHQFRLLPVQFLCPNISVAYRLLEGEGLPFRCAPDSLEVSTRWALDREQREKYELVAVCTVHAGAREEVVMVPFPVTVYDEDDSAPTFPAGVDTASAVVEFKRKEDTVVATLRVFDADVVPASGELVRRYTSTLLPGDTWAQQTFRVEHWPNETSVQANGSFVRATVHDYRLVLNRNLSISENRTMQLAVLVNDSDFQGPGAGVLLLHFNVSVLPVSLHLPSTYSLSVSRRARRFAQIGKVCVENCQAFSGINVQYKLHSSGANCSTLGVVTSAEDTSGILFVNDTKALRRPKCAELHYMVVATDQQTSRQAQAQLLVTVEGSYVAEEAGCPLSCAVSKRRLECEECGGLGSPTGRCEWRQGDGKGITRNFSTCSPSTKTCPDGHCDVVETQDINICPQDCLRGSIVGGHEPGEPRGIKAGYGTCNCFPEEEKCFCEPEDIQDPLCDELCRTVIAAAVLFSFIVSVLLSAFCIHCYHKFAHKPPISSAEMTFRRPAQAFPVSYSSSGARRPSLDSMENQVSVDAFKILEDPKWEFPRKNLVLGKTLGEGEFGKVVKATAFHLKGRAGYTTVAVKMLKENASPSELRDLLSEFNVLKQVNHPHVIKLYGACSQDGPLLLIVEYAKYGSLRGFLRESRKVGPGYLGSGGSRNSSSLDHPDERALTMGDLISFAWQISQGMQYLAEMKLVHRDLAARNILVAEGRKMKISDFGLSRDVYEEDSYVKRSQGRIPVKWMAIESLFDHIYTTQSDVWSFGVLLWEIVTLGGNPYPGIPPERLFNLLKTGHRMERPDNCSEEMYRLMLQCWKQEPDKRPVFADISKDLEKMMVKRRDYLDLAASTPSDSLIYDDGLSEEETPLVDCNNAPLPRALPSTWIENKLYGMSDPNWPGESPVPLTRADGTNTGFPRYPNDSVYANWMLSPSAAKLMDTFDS
- PROCEDURE DETAILS: RET Kinase Activity Assay
- Assay type: biochemical
- MEASUREMENT PARAMETERS: read-out: Ret, % INH, at 30 uM
REPORTED ENDPOINT: inhibition at 30 µM

Completed entries (count: 4):
Nc1nc(N2CCN(Cc3ccc(F)c(F)c3)c3ccccc3C2)c2cn[nH]c2n1 [Compound 47]    50 to 79%
COc1ccc(CN2CCN(c3nc(N)nc4[nH]ncc34)Cc3ccccc32)cc1OC [Compound 28]    < 50%
Nc1nc(N2CCN(Cc3cccc(F)c3)c3ccccc3C2)c2cn[nH]c2n1 [Compound 6]    50 to 79%
COc1ccc(OC)c(CN2CCN(c3nc(N)nc4[nH]cnc34)Cc3ccccc32)c1 [Compound 35]    < 50%

Provide the documented inhibition at 30 µM with RET kinase (Homo sapiens) as the system for Nc1nc(N2CCN(Cc3ccc(F)cc3)c3ccccc3C2)c2nc[nH]c2n1 [Compound 15]
50 to 79%

Provide the documented inhibition at 30 µM with RET kinase (Homo sapiens) as the system for Nc1nc(N2CCN(Cc3ccc(Cl)cc3)c3ccccc3C2)c2cn[nH]c2n1 [Compound 23]
< 50%

Provide the documented inhibition at 30 µM with RET kinase (Homo sapiens) as the system for Nc1nc(N2CCN(Cc3cccc4ccccc34)c3ccccc3C2)c2nc[nH]c2n1 [Compound 17]
50 to 79%

Provide the documented inhibition at 30 µM with RET kinase (Homo sapiens) as the system for Nc1nc(N2CCN(Cc3cccc(Cl)c3)c3ccccc3C2)c2cn[nH]c2n1 [Compound 25]
< 50%

---

- TARGET SYSTEM: EphA8 (Homo sapiens)
- Sequence (P29322 28-1005): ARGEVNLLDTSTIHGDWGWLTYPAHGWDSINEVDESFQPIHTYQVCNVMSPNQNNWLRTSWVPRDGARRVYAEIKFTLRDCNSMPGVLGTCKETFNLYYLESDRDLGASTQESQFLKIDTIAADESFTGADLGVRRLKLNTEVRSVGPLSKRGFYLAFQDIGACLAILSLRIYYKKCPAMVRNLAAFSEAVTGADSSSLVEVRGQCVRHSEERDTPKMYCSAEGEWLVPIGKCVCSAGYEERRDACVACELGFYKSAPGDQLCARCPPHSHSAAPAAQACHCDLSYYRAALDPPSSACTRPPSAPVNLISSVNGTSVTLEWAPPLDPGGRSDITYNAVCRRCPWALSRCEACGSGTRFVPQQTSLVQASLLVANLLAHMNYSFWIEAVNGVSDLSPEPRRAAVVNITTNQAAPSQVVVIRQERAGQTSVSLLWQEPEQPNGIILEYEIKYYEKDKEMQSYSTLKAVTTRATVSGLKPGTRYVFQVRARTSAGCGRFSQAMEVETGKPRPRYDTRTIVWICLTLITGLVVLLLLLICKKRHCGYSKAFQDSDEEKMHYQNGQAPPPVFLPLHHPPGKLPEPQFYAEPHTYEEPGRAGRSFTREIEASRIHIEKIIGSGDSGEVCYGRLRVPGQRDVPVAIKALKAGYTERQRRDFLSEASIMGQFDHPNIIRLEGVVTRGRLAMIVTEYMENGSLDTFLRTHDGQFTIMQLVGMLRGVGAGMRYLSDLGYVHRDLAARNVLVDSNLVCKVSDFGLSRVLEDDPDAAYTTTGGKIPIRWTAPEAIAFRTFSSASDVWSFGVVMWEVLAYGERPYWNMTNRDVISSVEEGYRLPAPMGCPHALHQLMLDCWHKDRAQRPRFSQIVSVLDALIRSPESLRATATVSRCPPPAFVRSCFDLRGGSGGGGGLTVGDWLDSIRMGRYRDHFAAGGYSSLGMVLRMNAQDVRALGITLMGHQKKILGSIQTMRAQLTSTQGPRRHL
- PROCEDURE DETAILS: EphA8 Kinase Activity Assay
- Format: biochemical
- MEASUREMENT PARAMETERS: read-out: EphA8, % INH, at 30 uM
Measured inhibition at 30 µM of individual entries

Completed entries (count: 3):
Cc1cccc(CN2CCN(c3nc(N)nc4[nH]ncc34)Cc3ccccc32)c1    < 50%
Nc1nc(N2CCN(Cc3cccc4ccccc34)c3ccccc3C2)c2nc[nH]c2n1    50 to 79%
Nc1nc(N2CCN(CCCc3cccc(Cl)c3)c3ccccc3C2)c2cn[nH]c2n1    < 50%

Alright, here's another compound for you.
Provide the documented inhibition at 30 µM with EphA8 (Homo sapiens) as the system for `COc1cccc(CN2CCN(c3nc(N)nc4[nH]ncc34)Cc3ccccc32)c1`
50 to 79%

---

- TARGET SYSTEM: UniProt:P42680
- PROCEDURE DETAILS: Tec Kinase Activity Assay
- Assay type: biochemical
- MEASUREMENT PARAMETERS: read-out: Tec % INH, at 30 uM
Measured inhibition at 30 µM of individual entries

Cc1cccc(CN2CCN(c3nc(N)nc4[nH]cnc34)Cc3ccccc32)c1 [Compound 33]    < 50%
Nc1nc(N2CCN(CCCc3ccccc3)c3ccccc3C2)c2nc[nH]c2n1 [Compound 40]    > 79%

Which inhibition at 30 µM reading was recorded for the compound Nc1nc(N2CCN(Cc3cccc(Cl)c3)c3ccccc3C2)c2cn[nH]c2n1 [Compound 25] ?
50 to 79%

Which inhibition at 30 µM reading was recorded for the compound Nc1nc(N2CCN(Cc3ccc(F)cc3)c3ccccc3C2)c2nc[nH]c2n1 [Compound 15] ?
50 to 79%

Which inhibition at 30 µM reading was recorded for the compound COc1ccccc1CN1CCN(c2nc(N)nc3[nH]cnc23)Cc2ccccc21 [Compound 9] ?
50 to 79%

---

Measured inhibition at 30 µM of individual entries
- TARGET SYSTEM: Tec kinase (Homo sapiens)
- Sequence (P42680 whole entry): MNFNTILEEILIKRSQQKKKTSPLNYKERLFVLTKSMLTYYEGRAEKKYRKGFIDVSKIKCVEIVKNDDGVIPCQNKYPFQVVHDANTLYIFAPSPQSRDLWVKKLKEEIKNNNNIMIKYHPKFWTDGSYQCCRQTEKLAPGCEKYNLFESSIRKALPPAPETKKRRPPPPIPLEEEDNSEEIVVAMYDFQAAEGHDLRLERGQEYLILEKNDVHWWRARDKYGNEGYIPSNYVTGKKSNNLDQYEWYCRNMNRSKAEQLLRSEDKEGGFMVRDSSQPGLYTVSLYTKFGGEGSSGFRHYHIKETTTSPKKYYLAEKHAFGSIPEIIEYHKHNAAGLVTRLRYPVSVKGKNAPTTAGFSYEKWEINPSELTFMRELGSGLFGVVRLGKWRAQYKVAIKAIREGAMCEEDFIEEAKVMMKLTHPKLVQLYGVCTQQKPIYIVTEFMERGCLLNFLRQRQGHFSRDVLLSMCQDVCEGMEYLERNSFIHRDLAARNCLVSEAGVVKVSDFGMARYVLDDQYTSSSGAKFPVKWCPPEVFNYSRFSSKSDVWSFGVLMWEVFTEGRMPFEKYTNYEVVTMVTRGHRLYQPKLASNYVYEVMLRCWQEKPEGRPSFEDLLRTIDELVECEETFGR
- PROCEDURE DETAILS: Tec Kinase Activity Assay
- Type: biochemical
- MEASUREMENT PARAMETERS: read-out: Tec % INH, at 30 uM

Nc1nc(N2CCN(Cc3cccc4ccccc34)c3ccccc3C2)c2nc[nH]c2n1    50 to 79%

Which inhibition at 30 µM reading was recorded for the molecule COc1cc2c(cc1OC)C(c1cccc(C(F)(F)F)c1)N(c1nc(N)nc3[nH]cnc13)CC2 (centres unmarked) ?
< 50%

Which inhibition at 30 µM reading was recorded for the molecule `Nc1nc(N2CCN(CCCc3cccc(F)c3)c3ccccc3C2)c2nc[nH]c2n1` ?
< 50%

Which inhibition at 30 µM reading was recorded for the molecule `Nc1nc(N2CCN(Cc3cccc(Cl)c3)c3ccccc3C2)c2nc[nH]c2n1` ?
50 to 79%

Which inhibition at 30 µM reading was recorded for the molecule `CC(C)(C)c1ccc(CN2CCN(c3nc(N)nc4[nH]ncc34)Cc3ccccc32)cc1` ?
50 to 79%

Which inhibition at 30 µM reading was recorded for the molecule `COc1ccc(CN2CCN(c3nc(N)nc4[nH]ncc34)Cc3ccccc32)cc1OC` ?
50 to 79%

Which inhibition at 30 µM reading was recorded for the molecule `COc1ccc(OC)c(CN2CCN(c3nc(N)nc4[nH]ncc34)Cc3ccccc32)c1` ?
50 to 79%

Which inhibition at 30 µM reading was recorded for the molecule COc1cc2c(cc1OC)C(c1cccc(Cl)c1F)N(c1nc(N)nc3[nH]cnc13)CC2 (centres unmarked) ?
< 50%

Which inhibition at 30 µM reading was recorded for the molecule `Nc1nc(N2CCN(Cc3ccc(Cl)c(Cl)c3)c3ccccc3C2)c2nc[nH]c2n1` ?
< 50%

Which inhibition at 30 µM reading was recorded for the molecule `Cc1ccccc1CN1CCN(c2nc(N)nc3[nH]cnc23)Cc2ccccc21` ?
50 to 79%

Which inhibition at 30 µM reading was recorded for the molecule `Nc1nc(N2CCN(Cc3ccc(Cl)cc3Cl)c3ccccc3C2)c2nc[nH]c2n1` ?
< 50%

---

- TARGET SYSTEM: RET kinase (Homo sapiens)
- PROCEDURE DETAILS: RET Kinase Activity Assay
- Type: biochemical
- MEASUREMENT PARAMETERS: read-out: Ret, % INH, at 30 uM
REPORTED ENDPOINT: inhibition at 30 µM

Which inhibition at 30 µM reading was recorded for the compound `Nc1nc(N2CCN(Cc3ccc(Cl)c(Cl)c3)c3ccccc3C2)c2nc[nH]c2n1` ?
< 50%

Which inhibition at 30 µM reading was recorded for the compound `Cc1cccc(CN2CCN(c3nc(N)nc4[nH]cnc34)Cc3ccccc32)c1` ?
50 to 79%

Which inhibition at 30 µM reading was recorded for the compound `CC(C)(C)c1ccc(CN2CCN(c3nc(N)nc4[nH]ncc34)Cc3ccccc32)cc1` ?
50 to 79%
